Test system: MFM-223
Experiment: normalised response (% of control), CellTox Green; higher = less cell death (100 = DMSO, 0 = benzethonium chloride kill control)
Settings: incubation time: 72 h
experimentalEndpoint: normalised response (%)
Numeric answer only, unit % assumed.

Consider the reported normalised response for these molecules:
O=NN(CCCl)C(=O)NC1CCCCC1 [Lomustine] (100 nM): 105
CC[C@@H]1C(=O)N(C)c2cnc(Nc3ccc(C(=O)N[C@H]4CC[C@H](N5CCN(CC6CC6)CC5)CC4)cc3OC)nc2N1C(C)C [Volasertib] (10 nM): 1.2
CC(C)C(=O)Nc1ccc([N+](=O)[O-])c(C(F)(F)F)c1 [Flutamide] (10000 nM): 89
Cn1cc(C[C@@H](N)C(=O)O)c2ccccc21 [1-methyl-D-tryptophan] (5000 nM): 103

Input: If you can, please state the reported normalised response value of NC(=O)c1cccc2cn(-c3ccc([C@@H]4CCCNC4)cc3)nc12 [MK-4827] (1000 nM) .
Output: 101

Input: If you can, please state the reported normalised response value of CC(C)n1nc(-c2ccc3oc(N)nc3c2)c2c(N)ncnc21 [INK128] (100 nM) .
Output: 93.9

Input: If you can, please state the reported normalised response value of NC1(c2ccc(-c3nc4ccn5c(=O)[nH]nc5c4cc3-c3ccccc3)cc2)CCC1 [MK-2206] (100 nM) .
Output: 92

Input: If you can, please state the reported normalised response value of CC(C)(C)Cn1c(N)nc2ccc(-c3[nH]c(C(C)(C)C)nc3-c3ccc(F)cc3)nc21 (100 nM) .
Output: 82.9

Input: If you can, please state the reported normalised response value of Nc1nc(Cl)nc2c1ncn2[C@@H]1O[C@H](CO)[C@@H](O)[C@@H]1F [Clofarabine] (100 nM) .
Output: 99.3

Input: If you can, please state the reported normalised response value of CCN(CC)CCOc1ccc(C(=C(Cl)c2ccccc2)c2ccccc2)cc1 [Clomifene] (10000 nM) .
Output: 40.9

Input: If you can, please state the reported normalised response value of CO[C@H](C(=O)[C@@H](O)[C@@H](C)O)[C@@H]1Cc2cc3cc(O[C@H]4C[C@@H](O[C@@H]5C[C@@H](O)[C@H](O)[C@@H](C)O5)[C@H](O)[C@@H](C)O4)c(C)c(O)c3c(O)c2C(=O)[C@H]1O[C@H]1C[C@@H](O[C@@H]2C[C@@H](O)[C@@H](O[C@@H]3C[C@](C)(O)[C@H](O)[C@@H](C)O3)[C@@H](C)O2)[C@H](O)[C@@H](C)O1 [Plicamycin] (100 nM) .
Output: 100

Input: If you can, please state the reported normalised response value of NC1(c2ccc(-c3nc4ccn5c(=O)[nH]nc5c4cc3-c3ccccc3)cc2)CCC1 [MK-2206] (10 nM) .
Output: 104

Input: If you can, please state the reported normalised response value of Nc1nc(Cl)nc2c1ncn2[C@@H]1O[C@H](CO)[C@@H](O)[C@@H]1F [Clofarabine] (1000 nM) .
Output: 99

Input: If you can, please state the reported normalised response value of Cn1cc(C[C@@H](N)C(=O)O)c2ccccc21 [1-methyl-D-tryptophan] (500 nM) .
Output: 84.3

* * *

Tested on: MFM-223
Test: normalised viability (% of control), CellTiter-Blue; higher = more viable cells (about 100 = DMSO control)
Settings: 1000 nM; incubation time: 72 h
The reader will find reported normalised viability values listed item by item below.
Numeric answer only, unit % assumed.

Consider the reported normalised viability for these molecules:
COc1cc2c(N3CCN(C(=O)Nc4ccc(OC(C)C)cc4)CC3)ncnc2cc1OCCCN1CCCCC1: 113
COc1cc2c(Oc3ccc(NC(=O)C4(C(=O)Nc5ccc(F)cc5)CC4)cc3F)ccnc2cc1OCCCN1CCOCC1: 35
NC1(c2ccc(-c3nc4ccn5c(=O)[nH]nc5c4cc3-c3ccccc3)cc2)CCC1: 19.8

# input for lookup
Input: Kindly state the measured normalised viability obtained for "CC(C)C[C@H](NC(=O)[C@H](CCc1ccccc1)NC(=O)CN1CCOCC1)C(=O)N[C@@H](Cc1ccccc1)C(=O)N[C@@H](CC(C)C)C(=O)[C@@]1(C)CO1" with MFM-223.
Output: 14.4
